tgt: recombinant human PAI-1 (Homo sapiens, UniProt P05121)
Sequence (P05121 24-402): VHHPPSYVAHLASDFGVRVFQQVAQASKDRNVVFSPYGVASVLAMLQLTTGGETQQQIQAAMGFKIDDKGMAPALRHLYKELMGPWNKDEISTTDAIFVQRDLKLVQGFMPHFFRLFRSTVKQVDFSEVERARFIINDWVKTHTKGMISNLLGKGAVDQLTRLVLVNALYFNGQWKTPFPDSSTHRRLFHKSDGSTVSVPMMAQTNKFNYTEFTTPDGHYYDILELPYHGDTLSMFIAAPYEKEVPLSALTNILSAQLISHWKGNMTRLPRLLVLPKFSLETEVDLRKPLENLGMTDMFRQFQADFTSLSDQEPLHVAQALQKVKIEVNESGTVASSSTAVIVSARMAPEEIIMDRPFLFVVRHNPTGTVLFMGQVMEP
experimental-protocol: Test Example 2: Human PAI-1 Inhibitory Activity (pH 7.4 HEPES buffer, 10 minutes incubation with two-chain tPA)
Type: biochemical
Set-up: purchased Molecular Innovations, Inc
condition: read-out: Inhibition Rate of PAI-1 Activity (%)
value-type: inhibition at 0.3 µM (%)

CC(C)(C)c1cccc(Oc2cc(-c3cccc(OC(F)(F)F)c3)ccc2CCC(=O)O)c1 [Compound 515]	16
CCCOc1ccc(N(Cc2ccc(C(C)(C)C)cc2)C(=O)C(=O)O)cc1-c1ccc(OC(F)(F)F)cc1 [Compound 185]	9
CC(C)(C)c1ccc(Sc2cc(-c3ccc(OC(F)(F)F)cc3)ccc2/C=C/C(=O)O)cc1 [Compound 462]	94
CC(C)Oc1ccc(N(Cc2ccc(C(C)(C)C)cc2)C(=O)C(=O)O)cc1-c1ccc(OC(F)(F)F)cc1 [Compound 211]	16
CC(Oc1cc(-c2ccc(OC(F)(F)F)cc2)ccc1CCC(=O)O)c1ccccc1 (stereo not drawn) [Compound 501]	0
CCCN(CC(=O)O)c1cc(-c2ccc(OC(F)(F)F)cc2)ccc1Oc1ccc(C(C)(C)C)cc1 [Compound 435]	29
O=C(O)CCc1cc(-c2ccc(OC(F)(F)F)cc2)ccc1OCCCCc1ccccc1 [Compound 102]	7
CC(C)(C)c1ccc(Oc2ccc(-c3ccc(C(C)(C)C)cc3)cc2OCC(=O)O)cc1 [Compound 453]	15

a: CCCCN(CC(=O)O)c1cc(-c2ccc(OC(F)(F)F)cc2)ccc1Oc1ccc(C(C)(C)C)cc1 [Compound 428]
b: CC(C)(C)c1ccc(Oc2cc(-c3cccc([N+](=O)[O-])c3)ccc2OCC(=O)O)cc1 [Compound 485]
Which item exceeds the other in inhibition at 0.3 µM, a or b ? Field: selected label. Fill in the label of the entry you choose.
a

P: CC(C)c1ccc(-c2ccc(CCC(=O)O)c(Oc3ccc(C(C)(C)C)cc3)c2)cc1 [Compound 519]
Q: CC(C)(C)c1ccc(Oc2cc(-c3ccc(OC(F)(F)F)cc3)ccc2N(CCCCc2ccccc2)C(=O)C(=O)O)cc1 [Compound 635]
R: CN(C)c1ccc(N(Cc2ccc(C(C)(C)C)cc2)C(=O)C(=O)O)cc1-c1ccc(OC(F)(F)F)cc1 [Compound 214]
// sort entries: inhibition at 0.3 µM, high to low Write the labels in rank order as requested.
Q, P, R

====

tgt: recombinant human PAI-1 (Homo sapiens)
experimental-protocol: Test Example 2: Human PAI-1 Inhibitory Activity (pH 7.4 HEPES buffer, 10 minutes incubation with two-chain tPA)
Type: biochemical
Parameters: purchased Molecular Innovations, Inc
condition: read-out: Inhibition Rate of PAI-1 Activity (%)
value-type: inhibition at 0.3 µM (%)

# annotated cases, reported inhibition at 0.3 µM shown
O=C(O)C(=O)N(Cc1ccc(-c2ccc(OC(F)(F)F)cc2)cc1)c1ccccc1-c1ccccc1	9
CC(C)(C)OCCOc1ccc(-c2ccc(OC(F)(F)F)cc2)cc1N(CCCCc1ccccc1)C(=O)C(=O)O	7
CC(C)(Oc1cc(-c2ccc(OC(F)(F)F)cc2)ccc1OCc1ccc(C(C)(C)C)cc1)C(=O)O	8
CCC(CC)Oc1ccc(N(CCCc2ccccc2)C(=O)C(=O)O)cc1-c1ccc(OC(F)(F)F)cc1	8
CC(C)(C)c1ccc(Oc2ccc(Oc3ccc(OC(F)(F)F)cc3)cc2CCC(=O)O)cc1	2

I: CCCCc1ccc(-c2ccc(Oc3ccc(C(C)(C)C)cc3)c(OCC(=O)O)c2)cc1
II: CC(C)c1ccccc1Oc1cc(-c2ccc(OC(F)(F)F)cc2)ccc1CCC(=O)O
III: CC(C)(C)c1ccc(Sc2cc(-c3ccc(OC(F)(F)F)cc3)ccc2CCC(=O)O)cc1
// sort entries: inhibition at 0.3 µM, high to low Write the labels in rank order as requested.
III, I, II

1: CCCCCOc1ccc(-c2ccc(OC(F)(F)F)cc2)cc1CN(C(=O)C(=O)O)c1ccc(C(C)(C)C)cc1
2: CC(C)(C)c1ccc(Oc2cc(-c3cc(Cl)ccc3Cl)ccc2/C=C/C(=O)O)cc1
3: CC(C)(C)c1ccc(Sc2cc(-c3ccc(OC(F)(F)F)cc3)ccc2C(=O)O)cc1
Arrange these 3 compounds in increasing order of inhibition at 0.3 µM. Write the labels in rank order as requested.
2, 3, 1

====

tgt: recombinant rat PAI-1 (Rattus norvegicus)
Sequence (P20961 24-402): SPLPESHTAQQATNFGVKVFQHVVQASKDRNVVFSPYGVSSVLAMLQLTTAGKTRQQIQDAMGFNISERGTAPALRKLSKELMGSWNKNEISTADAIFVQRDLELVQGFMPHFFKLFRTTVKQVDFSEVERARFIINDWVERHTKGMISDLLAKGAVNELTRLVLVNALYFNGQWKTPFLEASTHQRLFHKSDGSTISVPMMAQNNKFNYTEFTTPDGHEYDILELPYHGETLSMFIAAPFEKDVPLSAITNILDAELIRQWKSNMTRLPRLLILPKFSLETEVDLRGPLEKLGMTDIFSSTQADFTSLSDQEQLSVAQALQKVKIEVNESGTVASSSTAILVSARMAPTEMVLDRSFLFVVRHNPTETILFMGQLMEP
experimental-protocol: biochemical
condition: read-out: Inhibition Rate of PAI-1 Activity (%)
value-type: inhibition at 10 µM (%)

CC(C)(C)c1ccc(COc2c(OCC(=O)O)cccc2-c2ccc(OC(F)(F)F)cc2)cc1 [Compound 117]	94
CC(C)(C)c1ccc(CN(C(=O)C(=O)O)c2ccc(-c3ccc(OC(F)(F)F)cc3)cc2Cl)cc1 [Compound 147]	87
CC(C)(C)c1ccc(COc2cccc(Oc3ccc(OC(F)(F)F)cc3)c2CCC(=O)O)cc1 [Compound 86]	69
CCCCOc1ccc(N(CCCCc2ccccc2)C(=O)C(=O)O)cc1-c1ccc(OC(F)(F)F)cc1 [Compound 227]	95
CCN(CC)c1ccc(N(Cc2ccc(C(C)(C)C)cc2)C(=O)C(=O)O)cc1-c1ccc(OC(F)(F)F)cc1 [Compound 213]	78
Cc1cc(N(C)C)c(-c2ccc(OC(F)(F)F)cc2)cc1N(Cc1ccc(C(C)(C)C)cc1)C(=O)C(=O)O [Compound 215]	97

====

tgt: recombinant human PAI-1 (Homo sapiens, UniProt P05121)
experimental-protocol: Test Example 2: Human PAI-1 Inhibitory Activity (pH 7.4 HEPES buffer, 10 minutes incubation with two-chain tPA)
Assay type: biochemical
Design: purchased Molecular Innovations, Inc
condition: read-out: Inhibition Rate of PAI-1 Activity (%)
value-type: inhibition at 0.3 µM (%)
Report as a plain number; the unit % is understood.

# annotated cases, reported inhibition at 0.3 µM shown
CCCCCCC(Oc1cc(-c2ccc(OC(F)(F)F)cc2)ccc1Oc1ccc(C(C)(C)C)cc1)C(=O)O (stereo not shown)	16
CC(C)(C)c1ccc(Oc2ccc(-c3ccc(OC(F)(F)F)cc3)cc2CCC(=O)O)cc1	8
CCCCC(Oc1cc(-c2ccc(OC(F)(F)F)cc2)ccc1OCc1ccc(C(C)(C)C)cc1)C(=O)O (stereo not shown)	3

Recorded inhibition at 0.3 µM for CC(C)(C)c1ccc(CN(C(=O)C(=O)O)c2ccc(Oc3ccc(OC(F)(F)F)cc3)cc2C(F)(F)F)cc1 with recombinant human PAI-1 (Homo sapiens, UniProt P05121), please?
0

====

tgt: recombinant human PAI-1 (Homo sapiens, UniProt P05121)
experimental-protocol: biochemical
condition: read-out: Inhibition Rate of PAI-1 Activity (%)
value-type: inhibition at 5 µM (%)

CC(C)(C)c1ccc(COc2ccc(Nc3ccc(OC(F)(F)F)cc3)cc2CCC(=O)O)cc1	22

I: CCCCc1ccc(CN(C(=O)C(=O)O)c2ccc(-c3ccc(OC(F)(F)F)cc3)cc2)cc1
II: CC(C)(C)c1ccc(CN(C(=O)C(=O)O)c2ccc(Cl)c(OCc3ccc(OC(F)(F)F)cc3)c2)cc1
III: O=C(O)C(=O)N(Cc1ccc(Cl)cc1)c1ccc(-c2ccc(OC(F)(F)F)cc2)cc1
IV: CC(C)(C)c1ccc(-c2ccc(N(Cc3ccccc3)C(=O)C(=O)O)cc2)cc1
V: CC(C)(C)c1ccc(CN(C(=O)C(=O)O)c2ccc(-c3ccc(C(F)(F)F)cc3)cc2)cc1
Arrange these 5 compounds in increasing order of inhibition at 5 µM. Write the labels in rank order as requested.
V, IV, III, I, II
(V: 7%, IV: 10%, III: 22%, I: 37%, II: 62%)

1: CC(C)(C)c1ccc(-c2ccc(Oc3ccc(-c4ccc(OC(F)(F)F)cc4)cc3CCC(=O)O)c(CCC(=O)O)c2)cc1
2: CC(C)(C)c1ccc(Oc2cccc(-c3ccc(OC(F)(F)F)cc3)c2/C=C/C(=O)O)cc1
Which item exceeds the other in inhibition at 5 µM, 1 or 2 ? Field: selected label. Fill in the label of the entry you choose.
1
(1: 77%, 2: 51%)

I: O=C(O)C(=O)N(Cc1ccc(OC(F)(F)F)cc1)c1ccc(-c2ccc(OC(F)(F)F)cc2)cc1
II: CCC(CC)Oc1ccc(N(CCCc2ccccc2)C(=O)C(=O)O)c(-c2ccc(OC(F)(F)F)cc2)c1
III: CC(C)(C)c1ccc(CN(C(=O)C(=O)O)c2ccc(-c3ccc(C(C)(C)C)cc3)cc2)cc1
Arrange these 3 compounds in increasing order of inhibition at 5 µM. Write the labels in rank order as requested.
I, III, II
(I: 21%, III: 37%, II: 75%)

P: CC(C)(C)c1ccc(CN(C(=O)C(=O)O)c2ccccc2-c2ccc(OC(F)(F)F)cc2)cc1
Q: CC(C)(C)c1ccc(Oc2cc(-c3ccc(OC(F)(F)F)cc3)ccc2CCC(=O)O)cc1
Which item exceeds the other in inhibition at 5 µM, P or Q ? Field: selected label. Fill in the label of the entry you choose.
Q

I: O=C(O)C(=O)N(Cc1c(Cl)cccc1Cl)c1ccc(-c2ccc(OC(F)(F)F)cc2)cc1
II: CC(C)(C)c1ccc(CN(C(=O)C(=O)O)c2ccc(Cl)cc2Oc2ccc(OC(F)(F)F)cc2)cc1
III: CC(C)(C)c1ccc(CN(C(=O)C(=O)O)c2ccc(OCc3ccc(OC(F)(F)F)cc3)c(OCc3ccc(OC(F)(F)F)cc3)c2)cc1
IV: O=C(O)C(=O)N(Cc1ccc(Cl)cc1Cl)c1ccc(-c2ccc(OC(F)(F)F)cc2)cc1
Arrange these 4 compounds in increasing order of inhibition at 5 µM. Write the labels in rank order as requested.
IV, I, III, II
(IV: 3%, I: 22%, III: 44%, II: 74%)

a: CCCOc1ccc(N(CCCc2ccccc2)C(=O)C(=O)O)c(-c2ccc(OC(F)(F)F)cc2)c1
b: CC(C)(C)c1ccc(CN(C(=O)C(=O)O)c2ccc(-c3ccc(OC(F)(F)F)cc3)c(CCC(=O)O)c2)cc1
c: CC(C)(C)c1ccc(Oc2cc(-c3ccc(OC(F)(F)F)cc3)ccc2OCC(=O)O)cc1
d: CC(C)(C)Oc1ccc(N(Cc2ccc(C(C)(C)C)cc2)C(=O)C(=O)O)cc1-c1ccc(OC(F)(F)F)cc1
Arrange these 4 compounds in increasing order of inhibition at 5 µM. Write the labels in rank order as requested.
b, c, a, d

I: CCCOc1ccc(-c2ccc(OC(F)(F)F)cc2)cc1N(CCCc1ccccc1)C(=O)C(=O)O
II: CN(C(=O)C(=O)O)c1ccc(OCc2ccc(OC(F)(F)F)cc2)c(OCc2ccc(OC(F)(F)F)cc2)c1
Would you kindly point out which of I and II has the smaller inhibition at 5 µM figure? Field: selected label. Fill in the label of the entry you choose.
II
